TARGET UNDER TEST: Estrogen receptor beta (Homo sapiens) (UniProt Q92731)
Sequence (Q92731 whole entry): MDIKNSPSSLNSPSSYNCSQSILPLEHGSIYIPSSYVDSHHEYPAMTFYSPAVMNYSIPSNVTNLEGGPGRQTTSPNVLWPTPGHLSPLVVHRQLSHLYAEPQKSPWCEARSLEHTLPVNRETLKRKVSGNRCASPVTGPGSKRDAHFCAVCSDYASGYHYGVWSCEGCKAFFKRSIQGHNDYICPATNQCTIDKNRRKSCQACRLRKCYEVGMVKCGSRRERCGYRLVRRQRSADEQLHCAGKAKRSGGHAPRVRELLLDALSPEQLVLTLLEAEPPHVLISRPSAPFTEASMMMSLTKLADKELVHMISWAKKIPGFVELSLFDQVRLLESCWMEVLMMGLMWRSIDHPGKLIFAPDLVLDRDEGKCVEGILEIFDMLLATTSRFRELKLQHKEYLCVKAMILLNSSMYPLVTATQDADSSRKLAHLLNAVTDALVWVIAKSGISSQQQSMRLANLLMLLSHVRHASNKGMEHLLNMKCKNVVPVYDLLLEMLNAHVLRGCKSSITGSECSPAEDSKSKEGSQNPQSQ
EXPERIMENT SUMMARY: Displacement of [3H]estradiol from purified full length human ERbeta receptor relative to estradiol
Catalogue of RBA readings, one per entry.
Write the answer as a number in %, unit excluded.

// RBA value for `COc1ccc(-c2ccc(/C=N/O)c(O)c2C)cc1` : 0.007

// RBA value for `N#Cc1c(-c2ccc(O)cc2)ccc(/C=N/O)c1O` : 0.078

// RBA value for `O/N=C/c1ccc(-c2ccc(O)cc2)cc1O` : 0.553

Next:
// RBA value for `Cc1c(-c2ccc(O)cc2)ccc(/C=N/O)c1O` : 4.1
